System: Mycobacterium tuberculosis Erdman (autoluminescent)
Assay: FIC90 (Loewe) at 90% inhibition (log2); higher = more antagonistic
Conditions: in vitro model: cholesterol-high 0.2 mM; time point: constant (~7 days, model-specific)
Property Name: FIC90

1) COc1nc2ccc(Br)cc2cc1[C@@H](c1ccccc1)[C@@](O)(CCN(C)C)c1cccc2ccccc12 [bedaquiline] + CC(=O)NC[C@H]1CN(c2ccc(N3CCOCC3)c(F)c2)C(=O)O1 [linezolid] : 0.76
2) COc1nc2ccc(Br)cc2cc1[C@@H](c1ccccc1)[C@@](O)(CCN(C)C)c1cccc2ccccc12 [bedaquiline] + NNC(=O)c1ccncc1 [isoniazid] : 0.699
3) CC(C)/N=c1\cc2n(-c3ccc(Cl)cc3)c3ccccc3nc-2cc1Nc1ccc(Cl)cc1 [clofazimine] + CC(=O)NC[C@H]1CN(c2ccc(N3CCOCC3)c(F)c2)C(=O)O1 [linezolid] : 1.38
